The reported numbers originate from paper PMC3936774.

molecular target: Hfq WT (Escherichia coli, UniProt P0A6X3 1-102); test: fluorescence polarization
Can you tell me Kd for the items I'm about to list?
Give bare numbers, in nM.

UUUUUUUUUUUUUUUU (ssRNA) [U16 (fluorescein)]: 6.6

Enquiry: In one line, give reported Kd of the entry UUUUUU (ssRNA) [U6 (fluorescein)] .
Return: 766
